Molecular target: Transcription factor Sp1 (Homo sapiens) (UniProt P08047)
Sequence (P08047 whole entry, looked up): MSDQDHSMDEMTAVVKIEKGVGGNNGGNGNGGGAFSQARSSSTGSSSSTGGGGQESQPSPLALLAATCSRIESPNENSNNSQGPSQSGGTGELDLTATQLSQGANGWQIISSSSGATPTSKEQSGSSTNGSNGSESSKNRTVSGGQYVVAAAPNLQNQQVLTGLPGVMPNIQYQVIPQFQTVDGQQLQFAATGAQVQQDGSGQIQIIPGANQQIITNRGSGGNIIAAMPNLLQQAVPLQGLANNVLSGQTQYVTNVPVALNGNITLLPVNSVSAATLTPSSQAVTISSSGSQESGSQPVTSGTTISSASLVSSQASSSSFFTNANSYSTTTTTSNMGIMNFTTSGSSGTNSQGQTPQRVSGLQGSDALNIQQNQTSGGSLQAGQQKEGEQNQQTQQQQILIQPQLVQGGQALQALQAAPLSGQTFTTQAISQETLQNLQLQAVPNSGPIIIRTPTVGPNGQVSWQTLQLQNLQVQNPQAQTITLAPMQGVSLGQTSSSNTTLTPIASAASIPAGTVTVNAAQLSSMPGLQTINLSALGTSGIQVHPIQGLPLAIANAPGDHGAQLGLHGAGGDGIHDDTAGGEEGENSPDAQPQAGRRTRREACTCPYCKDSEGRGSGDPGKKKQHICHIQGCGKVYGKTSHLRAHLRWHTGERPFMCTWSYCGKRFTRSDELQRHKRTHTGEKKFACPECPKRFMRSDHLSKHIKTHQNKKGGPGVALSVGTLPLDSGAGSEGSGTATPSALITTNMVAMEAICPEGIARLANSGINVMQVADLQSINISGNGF
Assay: ATG_Sp1_CIS: Attagene CIS-FACTORIAL HepG2 Assay for human Specificity Protein 1 (Sp1) (AID 2282961)
Settings: HepG2 Sp1 cis-reporter transcription, actives raise or lower the signal
Active and inactive are the calls of the source. Rule for the calls: active = hit-call score of the fitted dose curve at least 0.9, where 1 is the maximum; inactive = score below 0.9.
Give your call using only these classes: active, inactive

Qu. For CC1COCc2cc3c(cc21)C(C)(C)C(C)C3(C)C (stereo unspecified) , what call appears in the results of this test?
Ans. active

Qu. What did this assay record as the result for OCC1CCC(CO)CC1 (stereo unspecified) ?
Ans. inactive

Qu. Lab log entry: CCCCCCCCC1CCC(=O)O1 (stereo unspecified) — outcome as called in the assay?
Ans. inactive

Qu. In this assay, the call recorded for CN(Cc1cnc2nc(N)nc(N)c2n1)c1ccc(C(=O)N[C@@H](CCC(=O)O)C(=O)O)cc1 was what?
Ans. inactive

Qu. Outcome? c1ccc2c(c1)CCC2
Ans. inactive

Qu. Give the logged outcome of this assay for the following compound: COC(=O)C(F)(F)C(F)(F)C(F)(F)F
Ans. inactive

Qu. # lookup: test call for Cc1cc(=O)oc2cc(O)ccc12
Ans. inactive

Qu. For this compound, state the assay outcome: CN(CCO)S(=O)(=O)C(F)(F)C(F)(F)C(F)(F)C(F)(F)C(F)(F)C(F)(F)C(F)(F)C(F)(F)F
Ans. inactive

Qu. Give the logged outcome of this assay for the following compound: NS(=O)(=O)O
Ans. inactive

Qu. Which outcome did this test record for the compound CC(C)(c1ccc(Oc2ccc(N)cc2)cc1)c1ccc(Oc2ccc(N)cc2)cc1 ?
Ans. inactive

Qu. What was the test verdict on FC(F)(F)C1(F)C(F)(F)C(F)(F)C(F)(F)C(F)(C(F)(F)F)C1(F)F (stereo unspecified) ?
Ans. inactive

Qu. Per the records of this test, what outcome belongs to C=CC(=O)OCCC(F)(F)C(F)(F)C(F)(F)C(F)(F)C(F)(F)C(F)(F)C(F)(F)C(F)(F)F ?
Ans. inactive

Qu. Assay result, entry CC[N+](CC)(CC)Cc1ccccc1 — outcome?
Ans. inactive

Qu. How did this test come out for c1cc2cccc3c4cccc5cccc(c(c1)c23)c54 ?
Ans. inactive

Qu. Per the records of this test, what outcome belongs to O=C(OC(=O)C(F)(F)C(F)(F)F)C(F)(F)C(F)(F)F ?
Ans. inactive

Qu. Called result for CCCCCCCCCCCC[N+](C)(C)CCCCCCCCCCCC
Ans. inactive

Qu. // param item: Oc1cc2ccccc2cc1O ; yields the recorded call
Ans. inactive

Qu. # lookup: test call for FC(F)(F)C(F)(F)C(F)(F)Br
Ans. inactive

Qu. Look up the recorded call for COc1ccccc1NC(=O)c1cc2ccccc2cc1O in this test.
Ans. active

Qu. Which outcome was entered for the compound Oc1cccc2c(O)cccc12 in this test?
Ans. inactive

Qu. Can you look up the reported call for O=CC(F)(F)C(F)(F)C(F)(F)C(F)F for me?
Ans. inactive

----------
Test: ATG_RORE_CIS: Attagene CIS-FACTORIAL HepG2 Assay for human RAR-related Orphan Receptor Element (RORE) (AID 2282959)
Details: HepG2 Attagene cis-factorial RORE reporter, mRNA; actives raise or lower the signal
Description: ATG_CIS is a cell-based, multiplexed-readout assay that uses HepG2, a human liver cell line, with measurements taken at 24 hours after chemical dosing in a 24-well plate.ATG_RORE_CIS is one of 52 assay component(s) measured or calculated from the ATG_CIS assay. […] This assay endpoint, ATG_RORE_CIS, was analyzed with bidirectional fitting relative to DMSO as the negative control and baseline of activity. […]
Activity calls are given as the source filed them. Rule for the calls: active = hit-call score of the fitted dose curve at least 0.9, where 1 is the maximum; inactive = score below 0.9.
Parameter call: string, one of active, inactive

Qu. What call does the record list for CCCCCCCCCCCC[N+](C)(C)CCCCCCCCCCCC ?
Ans. active

Qu. In this assay, the call recorded for CCCCCCCCC(C)=O was what?
Ans. inactive

Qu. For Cc1cc(C(=C2C=CC(=Nc3ccc(S(=O)(=O)O)cc3)C=C2)c2ccc(Nc3ccc(S(=O)(=O)O)cc3)cc2)cc(S(=O)(=O)O)c1N , what call appears in the results of this test?
Ans. inactive

Qu. Could you please tell me the result logged for FC(F)(F)C1(F)C(F)(F)C(F)(F)C(F)(F)C1(F)F in this assay?
Ans. inactive

Qu. Assay outcome for CCN(CCC#N)c1ccccc1 : what was it?
Ans. inactive

Qu. Which outcome was assigned to CCCCCc1ccc(O)cc1 in this test?
Ans. inactive

Qu. Which outcome did this test record for the compound O=C1OC(=O)c2cc(-c3ccc4c(c3)C(=O)OC4=O)ccc21 ?
Ans. inactive

Qu. Recorded call for CC(C)(O)C(=O)c1ccccc1 ?
Ans. inactive

Qu. # outcome recorded in this test, key = COC(=O)C(F)(F)C(F)(F)C(F)(F)F
Ans. inactive
